target: human CRTH2 (Homo sapiens, UniProt Q9Y5Y4); construct: expressed in transfected cells; host or cells: L1.2 cells, pEAK expression vector, puromycin-selected; assay: Measurement of Ca2+ mobilization in the human CRTH2-transfected L1.2 cell line (Assay 1); format: cell-based; settings: PGD2-induced Ca2+ mobilization in CRTH2-transfected L1.2 cells; compounds as yielded by solid phase synthesis, purity about 40 to 90%; read-out: Activity class
pIC50: −log10 of the molar value.
Property: pIC50; scope: individual molecules

Examples with their reported pIC50 follow.
{"columns": ["Molecule", "pIC50"],
 "data": [
  ["CN(C)c1nc(Cc2ccc(NC(=O)/C=C/c3ccccc3)cc2)nc(N2CCCC2)c1CC(=O)O [Example 7-11]", "7.00 to 8.00"],
  ["CN(CC(=O)NC1CCCC1)c1nc(Cc2ccc(NC(=O)c3ccccc3)cc2)nc(Cl)c1CC(=O)O [Example 1-9]", "7.00 to 8.00"],
  ["CN(CC(=O)NC1CCCC1)c1nc(Cc2ccc(NC(=O)CC3CCCCC3)cc2)nc(Cl)c1CC(=O)O [Example 1-13]", "7.00 to 8.00"],
  ["CN(CC(=O)N1CCCC1)c1nc(Cc2ccc(NC(=O)c3ccc4ccccc4c3)cc2)ncc1CC(=O)O [Example 2-3]", "> 8.00"],
  ["CC(C)CC(=O)Nc1ccc(Cc2ncc(CC(=O)[O-])c(N3CCCC3)n2)cc1.[Na+] [Example 2-32]", "7.00 to 8.00"],
  ["CN(C)c1nc(Cc2ccc(NC(=O)/C=C/c3ccc(Cl)cc3)cc2)nc(N(C)C)c1CC(=O)O [Example 7-8]", "> 8.00"],
  ["CN(C)c1nc(Cc2ccc(NC(=O)c3ccc(-c4ccccc4)cc3)cc2)nc(N2CCCC2)c1CC(=O)O [Example 7-16]", "7.00 to 8.00"],
  ["CCCCCC(=O)Nc1ccc(Cc2nc(Cl)c(CC(=O)O)c(N(C)CC(=O)NC3CCCC3)n2)cc1 [Example 1-12]", "6.30 to 7.00"]
]}

Lab note: need pIC50 with human CRTH2 (Homo sapiens, UniProt Q9Y5Y4) for entry CN(CC(=O)NC1CCCC1)c1nc(Cc2ccc(NC(=O)Nc3ccc4ccccc4c3)cc2)nc(Cl)c1CC(=O)O [Example 4-4] , please look it up.
7.00 to 8.00

Lab note: need pIC50 with human CRTH2 (Homo sapiens, UniProt Q9Y5Y4) for entry COc1ccccc1/C=C/C(=O)Nc1ccc(Cc2nc(N(C)C)c(CC(=O)O)c(N3CCOCC3)n2)cc1 [Example 7-27] , please look it up.
> 8.00

Lab note: need pIC50 with human CRTH2 (Homo sapiens, UniProt Q9Y5Y4) for entry CN(C)c1nc(Cc2ccc(NC(=O)c3ccc(Cl)cc3)cc2)nc(N2CCOCC2)c1CC(=O)O [Example 7-18] , please look it up.
6.30 to 7.00

###

Biological target: human CRTH2 (Homo sapiens)
Construct: expressed in transfected cells; host or cells: L1.2 cells, pEAK expression vector, puromycin-selected
Sequence (Q9Y5Y4 1-395): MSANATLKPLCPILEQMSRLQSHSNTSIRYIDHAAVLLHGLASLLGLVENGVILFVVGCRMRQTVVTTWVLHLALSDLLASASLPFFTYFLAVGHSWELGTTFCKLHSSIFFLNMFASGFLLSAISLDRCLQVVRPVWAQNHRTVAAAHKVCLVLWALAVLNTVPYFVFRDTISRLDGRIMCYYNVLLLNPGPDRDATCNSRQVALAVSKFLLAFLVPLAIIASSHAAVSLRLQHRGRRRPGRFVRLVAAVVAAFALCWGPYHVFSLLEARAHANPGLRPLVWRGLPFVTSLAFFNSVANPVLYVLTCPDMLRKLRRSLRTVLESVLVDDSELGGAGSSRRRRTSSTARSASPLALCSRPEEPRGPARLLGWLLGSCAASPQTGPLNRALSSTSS
Experiment: Measurement of Ca2+ mobilization in the human CRTH2-transfected L1.2 cell line (Assay 1)
Assay type: cell-based
Settings: PGD2-induced Ca2+ mobilization in CRTH2-transfected L1.2 cells; compounds as yielded by solid phase synthesis, purity about 40 to 90%; read-out: Activity class
Property: IC50; scope: individual compounds

Fill in: IC50 of O=C(O)Cc1cnc(Cc2ccc(NC(=O)c3ccc(F)cc3)cc2)nc1N1CCCC1 [Example 2-29] is ___
< 10 nM

Fill in: IC50 of O=C(O)Cc1cnc(Cc2ccc(NC(=O)c3ccc4ccccc4c3)cc2)nc1N1CCCC1 [Example 2-31] is ___
< 10 nM

Fill in: IC50 of CN(C)c1nc(Cc2ccc(N(C)C(=O)c3ccc(Cl)cc3)cc2)nc(Cl)c1CC(=O)O [Example 6-1] is ___
100 to 500 nM

Fill in: IC50 of COc1ccc(C(=O)Nc2ccc(Cc3nc(Cl)c(CC(=O)O)c(N(C)CC(=O)NC4CCCC4)n3)cc2)cc1 [Example 1-20] is ___
< 10 nM

Fill in: IC50 of CN(CC(=O)NC1CCCC1)c1nc(Cc2ccc(NC(=O)c3ccc(C#N)cc3)cc2)nc(Cl)c1CC(=O)O [Example 1-27] is ___
< 10 nM

Fill in: IC50 of CN(C)c1nc(Cc2ccc(NC(=O)c3cc(Cl)cc(Cl)c3)cc2)nc(Cl)c1CC(=O)O [Example 1-46] is ___
< 10 nM

Fill in: IC50 of CCCC(=O)Nc1ccc(Cc2ncc(CC(=O)O)c(N3CCCC3)n2)cc1 [Example 2-36] is ___
100 to 500 nM

Fill in: IC50 of CN(C)c1nc(Cc2ccccc2NC(=O)c2ccc3ccccc3c2)nc(Cl)c1CC(=O)O [Example 1-50] is ___
> 500 nM
